Test system: Homo sapiens
assayProtocol: Mean change in insulin concentration in healthy white human plasma with SLCO1B1 521TT/CYP2C8*1/*3 combined genotype at 2 mg, po
Format: ADME, organism-based
conditionInfo: in vivo
measureName: Activity (mU/l)
One number for each entry, in mU/l.

Enter recorded Activity with Homo sapiens for CCOc1cc(CC(=O)N[C@@H](CC(C)C)c2ccccc2N2CCCCC2)ccc1C(=O)O [REPAGLINIDE] here.
5.6

----------
assayProtocol: Cmax in healthy white human with SLCO1B1 521TT/CYP2C8*1/*1 combined genotype at 2 mg, po
Assay type: ADME, organism-based
Parameters: dose 2 mg, route oral
conditionInfo: in vivo
measureName: Cmax (ng/mL)
Give bare numbers, in ng/mL.

In one line, give reported Cmax of the entry CCOc1cc(CC(=O)N[C@@H](CC(C)C)c2ccccc2N2CCCCC2)ccc1C(=O)O [REPAGLINIDE] .
52.5
